system: T1, NPNA8 peptide (Plasmodium falciparum (isolate 3D7)., not fully specified)
T1 construct: source: synthetic peptide (InnoPep Inc)
T1 chain: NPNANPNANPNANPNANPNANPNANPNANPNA
experiment: BLI
conditions: both partners purified
measurement-type: kon (M⁻¹ s⁻¹)

>>> measurement("311R Fab (Fab, V domains shown, also called germline-reverted 311; source: ExpiCHO cells, purified (mAb Select PrismA or Capture Select, SEC)) VH: QVQLVESGGGVVPPGRSLRLSCATSGFTFSSYGMHWVRQAPGKGLEWVAIIWYDGSNKFYAASVKGRFTISRDNSKNTLYLQMNSLRVEDTAVYYCARAAYYDTSGYGDYWGQGTLVTVSS VL: QSVLTQPPSVSGAPGQTVTISCTGGSSNIGAGYDVHWYQQLPGTAPKLLIYGNINRPSGVPDRFSGSKSGTSASLAITGLQAEDEADYYCQSYDSSLSGSWVFGGGTKLTVL")
71000
